tested on: SAS cells; assay: SAS CTG proliferation assay (120 h) (HNSCC, wt amplified); type: cell-based
As shown below, each of these molecules has a reported IC50 value.

Some solved cases for reference:
C[C@H](Oc1cc([C@H]2CCOC2)nc(-c2noc3c2CCC[C@@]32CCCc3sc(N)c(C#N)c32)n1)[C@@H]1CCCN1C [II-88]: 2220 nM
C[C@H]1CNCCCN1c1cc(-c2ccn(C)n2)nc(-c2noc3c2CCC[C@@]32CCCc3sc(N)c(C#N)c32)n1 [II-140]: 128 nM
C[C@H](Oc1cc(N2CCCC3(COC3)C2)nc(-c2noc3c2CCC[C@@]32CCCc3sc(N)c(C#N)c32)n1)[C@@H]1CCCN1C [II-72]: 206 nM
C[C@H](Oc1cc(N2CCNC[C@@]23CCOC3)nc(-c2onc3c2CCC[C@@]32CCCc3sc(N)c(C#N)c32)n1)[C@@H]1CCCN1C [I-13]: 294 nM
C[C@H](Oc1cc(-n2ccc(C(=O)N3CCCC3)n2)nc(-c2noc3c2CCC[C@@]32CCCc3sc(N)c(C#N)c32)n1)[C@@H]1CCCN1C [II-19]: 132 nM

# evaluate next
Recorded IC50 of C[C@H](Oc1cc(-c2ccn(C)n2)nc(-c2noc3c2CCC[C@@]32CCCc3sc(N)c(C#N)c32)n1)[C@@H]1C[C@H](F)CN1C [II-144] , please.
302 nM

###

tested on: KRAS G12V-dependent Ba/F3 cells; assay: Ba/F3 proliferation assay, KRAS G12V; assay type: cell-based; details: Mus musculus, BaF3, 72 h, AlamarBlue;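 further: proliferation IC50 in KRAS G12V-dependent Ba/F3 cells read by AlamarBlue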
MEASUREMENT KIND: IC50 (nM)
Enter your answer as a number in nM; do not include the unit.

Worked cases, IC50 given:
CC(C)NC(=O)Cc1ccn(-c2cc(O[C@@H](C)[C@@H]3CCCN3C)nc(-c3noc4c3CCC[C@@]43CCCc4sc(N)c(C#N)c43)n2)n1: 3
C[C@H](Oc1cc(-c2cnn(C)n2)nc(-c2noc3c2CCC[C@@]32CCCc3sc(N)c(C#N)c32)n1)[C@@H]1C[C@@H](F)CN1C: 27
C[C@H](Oc1cc(N2CCNC3(CC3)C2)nc(-c2noc3c2CCC[C@@]32CCCc3sc(N)c(C#N)c32)n1)[C@@H]1CCCN1C: 157
C[C@H](Oc1cc(N2CC[C@H](N3CCCCC3)C2)nc(-c2noc3c2CCC[C@@]32CCCc3sc(N)c(C#N)c32)n1)[C@@H]1CCCN1C: 549
CO[C@H]1CCN(C)[C@@H]1[C@H](C)Oc1cc(-n2ccc(C(=O)N[C@@H](C)c3ccccn3)n2)nc(-c2noc3c2CCC[C@@]32CCCc3sc(N)c(C#N)c32)n1: 1

What IC50 value was documented for this molecule, C[C@H](Oc1cc(N2CCC(N(C)C)CC2)nc(-c2noc3c2CCC[C@@]32CCCc3sc(N)c(C#N)c32)n1)[C@@H]1CCCN1C ?
581

Another molecule: C[C@H](Oc1cc(N2CCOC2=O)nc(-c2noc3c2CCC[C@@]32CCCc3sc(N)c(C#N)c32)n1)[C@@H]1CCCN1C
2

And for C[C@H](Oc1cc(N2CCNC[C@@]23CCOC3)nc(-c2onc3c2CCC[C@@]32CCCc3sc(N)c(C#N)c32)n1)[C@@H]1CCCN1C ?
821

Then what about the molecule C[C@H](Oc1cc(N2C[C@@H](N(C)C)[C@@H](F)C2)nc(-c2noc3c2CCC[C@@]32CCCc3sc(N)c(C#N)c32)n1)[C@@H]1CCCN1C ?
324
